Test method notes: in vitro
Setup conditions: human, Caco-2, pH 7.4

{"columns": ["Compound", "efflux ratio at 120 min, 2 μM"],
 "data": [
  ["CN(C)CCN(C)C(=O)c1ccc(N2CCN(CCn3c(=O)sc4c3nc(N)n3nc(-c5ccco5)nc43)CC2)c(F)c1", 1750],
  ["Nc1nc2c(sc(=O)n2CCN2CCN(c3cc(O[C@H]4CCNC4=O)c(F)cc3F)CC2)c2nc(-c3ccco3)nn12", 137],
  ["C[S@+]([O-])CCOc1ccc(N2CCN(CCn3c(=O)sc4c3nc(N)n3nc(-c5ccco5)nc43)CC2)c(F)c1 (single isomer, unassigned)", 67],
  ["Nc1nc2c(sc(=O)n2CCN2CCN(c3ccc(OCC4CNCCO4)cc3F)CC2)c2nc(-c3ccco3)nn12 (stereo not shown)", 66],
  ["CNCCNC(=O)c1ccc(N2CCN(CCn3c(=O)sc4c3nc(N)n3nc(-c5ccco5)nc43)CC2)c(F)c1", 28],
  ["C[S@@+]([O-])c1ccc(N2CCN(CCn3c(=O)sc4c3nc(N)n3nc(-c5ccco5)nc43)CC2)c(F)c1 (single isomer, unassigned)", 31],
  ["Nc1nc2c(sc(=O)n2CCN2CCN(c3cc(O[C@@H]4CNC[C@H]4F)c(F)cc3F)CC2)c2nc(-c3ccco3)nn12 (stereo in doubt)", 195],
  ["Cn1cnc(COc2ccc(N3CCN(CCn4c(=O)sc5c4nc(N)n4nc(-c6ccco6)nc54)CC3)c(F)c2)n1", 15],
  ["Nc1nc2c(sc(=O)n2CCN2CCN(c3ccc(OCC(=O)N4CCNCC4)cc3F)CC2)c2nc(-c3ccco3)nn12", 117],
  ["CN(C)CCNC(=O)COc1cc(N2CCN(CCn3c(=O)sc4c3nc(N)n3nc(-c5ccco5)nc43)CC2)c(F)cc1F", 264],
  ["Nc1nc2c(sc(=O)n2CCN2CCN(c3cc(C(=O)NCC4COCCN4)c(F)cc3F)CC2)c2nc(-c3ccco3)nn12 (stereo not shown)", 53],
  ["Nc1nc2c(sc(=O)n2CCN2CCN(c3ccc(OCc4nc[nH]n4)cc3F)CC2)c2nc(-c3ccco3)nn12", 97],
  ["Nc1nc2c(sc(=O)n2CCN2CCN(c3cc(OCc4nnn[nH]4)c(F)cc3F)CC2)c2nc(-c3ccco3)nn12", 1010]
]}

###

Test method notes: Concentration in brain and cerebrospinal fluid compared to plasma
Format: in vivo, mice
Setup conditions: female, Balb-c, mouse, brain, po, 10 mg/kg, mean of 3 mice, PO 10 mg/kg, 0.500 h; read-out: Brain/Plasma Ratio, Mean
Measured endpoint: Kp at 0.5 h

{"columns": ["Compound", "Experimental value"],
 "data": [
  ["NC(=O)COc1cc(N2CCN(CCn3c(=O)sc4c3nc(N)n3nc(-c5ccco5)nc43)CC2)c(F)cc1F [Compound 4]", "< 0.021"]
]}

###

Tested target: A2A receptor (Homo sapiens)
Sequence (P29274 whole entry): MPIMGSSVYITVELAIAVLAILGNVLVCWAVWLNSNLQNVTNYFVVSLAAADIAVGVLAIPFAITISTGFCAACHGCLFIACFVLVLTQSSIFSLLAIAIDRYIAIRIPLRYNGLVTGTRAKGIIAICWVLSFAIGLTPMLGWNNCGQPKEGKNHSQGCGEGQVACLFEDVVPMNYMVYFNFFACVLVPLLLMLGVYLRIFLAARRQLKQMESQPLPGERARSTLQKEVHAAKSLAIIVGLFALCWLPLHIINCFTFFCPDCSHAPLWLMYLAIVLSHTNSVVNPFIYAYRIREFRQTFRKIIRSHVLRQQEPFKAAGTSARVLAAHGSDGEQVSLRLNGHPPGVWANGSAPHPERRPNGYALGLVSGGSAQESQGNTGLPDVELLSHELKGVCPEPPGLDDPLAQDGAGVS
Test method notes: Inhibition of cAMP production in HEK cells
Format: cell-based
Setup conditions: IC50 (nM) (3 nM NECA as agonist, 0.1% BSA), HEK-293 cells with A2A receptor, 3 nM NECA as agonist, 0.1% BSA
Below: a set of entries, each annotated with reported IC50.

{"columns": ["Molecule", "IC50 (nM)"],
 "data": [
  ["C[C@H](CN(C)C)NC(=O)c1ccc(N2CCN(CCn3c(=O)sc4c3nc(N)n3nc(-c5ccco5)nc43)CC2)c(F)c1", 0.2],
  ["NC(=O)COc1ccc(N2CCN(CCn3c(=O)sc4c3nc(N)n3nc(-c5ccco5)nc43)CC2)cc1", 2],
  ["Nc1nc2c(sc(=O)n2CCN2CCN(c3cc(OCCO)ccc3F)CC2)c2nc(-c3ccco3)nn12", 0.2],
  ["CN(C)CCNC(=O)COc1cc(N2CCN(CCn3c(=O)sc4c3nc(N)n3nc(-c5ccco5)nc43)CC2)c(F)cc1F", 0.3],
  ["Nc1nc2c(sc(=O)n2CCN2CCN(c3ccc(F)c(OCC(=O)O)c3F)CC2)c2nc(-c3ccco3)nn12", 0.4],
  ["CN(C)CCNC(=O)c1cc(N2CCN(CCn3c(=O)sc4c3nc(N)n3nc(-c5ccco5)nc43)CC2)c(F)cc1F", 117],
  ["NCCNC(=O)c1ccc(N2CCN(CCn3c(=O)sc4c3nc(N)n3nc(-c5ccco5)nc43)CC2)c(F)c1", 0.4],
  ["Nc1nc2c(sc(=O)n2CCN2CCN(c3ccc(OCc4nc[nH]n4)cc3F)CC2)c2nc(-c3ccco3)nn12", 0.5],
  ["CC(C)(Oc1cc(N2CCN(CCn3c(=O)sc4c3nc(N)n3nc(-c5ccco5)nc43)CC2)c(F)cc1F)C(=O)O", 0.9],
  ["Nc1nc2c(sc(=O)n2CCN2CCN(c3ccc(O[C@@H]4COC[C@H]4O)cc3F)CC2)c2nc(-c3ccco3)nn12", 0.4],
  ["Nc1nc2c(sc(=O)n2CCN2CCN(c3cc(OC[C@H](O)CO)c(F)cc3F)CC2)c2nc(-c3ccco3)nn12", 0.4],
  ["Nc1nc2c(sc(=O)n2CCN2CCN(c3ccc(OCCN4CCNCC4)cc3F)CC2)c2nc(-c3ccco3)nn12", 0.3],
  ["Nc1nc2c(sc(=O)n2CCN2CCN(c3ccc(OCC(O)CO)cc3)CC2)c2nc(-c3ccco3)nn12 (stereo not drawn)", 14.2],
  ["CNC(=O)c1ccc(N2CCN(CCn3c(=O)sc4c3nc(N)n3nc(-c5ccco5)nc43)CC2)cc1", 2.6],
  ["C[C@@H](Oc1cc(N2CCN(CCn3c(=O)sc4c3nc(N)n3nc(-c5ccco5)nc43)CC2)c(F)cc1F)C(=O)O (single isomer, unassigned)", 0.9],
  ["Nc1nc2c(sc(=O)n2CCN2CCN(c3ccc(N4CC[S+]([O-])CC4)cc3F)CC2)c2nc(-c3ccco3)nn12", 0.6],
  ["NC(=O)CNCCOc1ccc(N2CCN(CCn3c(=O)sc4c3nc(N)n3nc(-c5ccco5)nc43)CC2)c(F)c1", 0.8],
  ["Nc1nc2c(sc(=O)n2CCN2CCN(c3ccc(C(=O)NCCNCCO)cc3F)CC2)c2nc(-c3ccco3)nn12", 0.6],
  ["C[S@+]([O-])c1ccc(N2CCN(CCn3c(=O)sc4c3nc(N)n3nc(-c5ccco5)nc43)CC2)c(F)c1 (single isomer, unassigned)", 0.4],
  ["Nc1nc2c(sc(=O)n2CCN2CCN(c3c(F)cc(OCC(=O)O)cc3F)CC2)c2nc(-c3ccco3)nn12", 0.7],
  ["Nc1nc2c(sc(=O)n2CCN2CCN(c3ccc(OCC(=O)N4CCNCC4)cc3F)CC2)c2nc(-c3ccco3)nn12", 0.8],
  ["Nc1nc2c(sc(=O)n2CCN2CCN(c3cc(O[C@@H]4CNC[C@@H]4F)c(F)cc3F)CC2)c2nc(-c3ccco3)nn12", 0.4],
  ["Nc1nc2c(sc(=O)n2CCN2CCN(c3ccc(O[C@@H]4CNC[C@H]4F)cc3F)CC2)c2nc(-c3ccco3)nn12", 0.7],
  ["Nc1nc2c(sc(=O)n2CCN2CCN(c3cc(O[C@@H]4CNC[C@H]4F)c(F)cc3F)CC2)c2nc(-c3ccco3)nn12 (stereo in doubt)", 0.8],
  ["Nc1nc2c(sc(=O)n2CCN2CCN(c3cc(O[C@H]4CNC[C@@H]4F)c(F)cc3F)CC2)c2nc(-c3ccco3)nn12", 0.7],
  ["Cc1cc(N2CCN(CCn3c(=O)sc4c3nc(N)n3nc(-c5ccco5)nc43)CC2)c(F)cn1", 0.2],
  ["C[S@+]([O-])CCNC(=O)c1cc(N2CCN(CCn3c(=O)sc4c3nc(N)n3nc(-c5ccco5)nc43)CC2)c(F)cc1F", 0.4]
]}
